system: RPMI-8226 leukemia; assay: NCI tumour cell line growth inhibition, 48 h
reported-endpoint: TGI

Task item: Reported TGI for COC1C=C(NCC2(CO)CCC2)NC(N)=N1 (stereo unspecified) : what is it?
Reply: > 100 µM

Task item: Reported TGI for Cc1ncc(CO)c(CN)c1O : what is it?
Reply: > 100 µM

Task item: Reported TGI for COc1ccc(-n2c3c(c4cc(O)ccc42)C(=O)c2ccccc2C3=O)cc1 : what is it?
Reply: > 100 µM

Task item: Reported TGI for O=C(CCCNC(=O)OCc1ccccc1)OCc1ccc2c(c1)C(=O)c1ccccc1C2=O : what is it?
Reply: > 100 µM

Task item: Reported TGI for CCCCCC(=O)OCC(=O)O[C@@H]1C[C@]2(C(C)C)O[C@@]1(C)[C@@H]1CC[C@@H](C)[C@H]1[C@@H]2OC(=O)/C=C/c1ccccc1 : what is it?
Reply: > 100 µM

Task item: Reported TGI for CO/C(=N\N=C\c1ccc(OC)cc1OC)c1ccncc1 : what is it?
Reply: > 10 µM

Task item: Reported TGI for COc1ccc(NC(=O)c2sc3nc(C)c(C(O)c4ccc(OC)cc4)cc3c2N)cc1 (stereo unspecified) : what is it?
Reply: > 50 µM

Task item: Reported TGI for O=C(O)c1ccc(-c2ccc(C(=O)O)cc2I)c(I)c1 : what is it?
Reply: > 100 µM

Task item: Reported TGI for COc1cc(-c2nn(C(=O)NS(=O)(=O)c3ccc(C)cc3)cc2-c2ccncc2)ccc1Cl : what is it?
Reply: > 100 µM

Task item: Reported TGI for CN(C)c1ccc(C2CC(=O)C(C#N)=C(c3ccccc3)NN2C)cc1 (stereo unspecified) : what is it?
Reply: > 100 µM

Task item: Reported TGI for CN(C)CCCSc1c2ccccc2nc2cc(NCC(=O)Nc3ccccc3-c3ccccc3NC(=O)CNc3ccc4c(SCCCN(C)C)c5ccccc5nc4c3)ccc12 : what is it?
Reply: > 100 µM
